The reported measurements were obtained from ChEMBL document CHEMBL5113490.

Assay: Cytotoxicity against human MCF-10A cells assessed as growth inhibition at 10 uM in presence of 0.25 uM daunorubicin
Assay type: toxicity, cell-based
Details: read-out: GI

compound: NC(=O)c1cccc2cn(-c3ccc(C4CCCN(c5cccc6c5C(=O)N(C5CCC(=O)NC5=O)C6=O)C4)cc3)nc12 (stereo unspecified)
inhibition at 10 µM / %: 35

###

Experiment: AUC (0 to t) in rat at 8 mg/kg, iv
Format: ADME, organism-based
Design: dose 8 mg/kg, route iv
Conditions: in vivo
result.type: AUC(0-t) (ng·h/mL)

compound: NC(=O)c1cccc2cn(-c3ccc(C4CCCN(c5cccc6c5C(=O)N(C5CCC(=O)NC5=O)C6=O)C4)cc3)nc12 (stereo unspecified)
obs.value: 6960

###

Experiment: MRT in rat at 8 mg/kg, iv
Assay type: ADME, organism-based
Conditions: in vivo
result.type: MRT (h)

compound: NC(=O)c1cccc2cn(-c3ccc(C4CCCN(c5cccc6c5C(=O)N(C5CCC(=O)NC5=O)C6=O)C4)cc3)nc12 (stereo unspecified)
result.type: MRT
obs.value: 2.55

###

Assay: Cytotoxicity against human MCF-10A cells assessed as growth inhibition at 0.25 uM
Assay type: toxicity, cell-based
Settings: read-out: GI

smiles.str: COc1cccc2c1C(=O)c1c(O)c3c(c(O)c1C2=O)C[C@@](O)(C(C)=O)C[C@@H]3O[C@H]1C[C@H](N)[C@H](O)[C@H](C)O1
units.of.measure: %
inhibition at 0.25 µM: 35

###

Assay: Cytotoxicity against human MCF-10A cells assessed as growth inhibition at 10 uM
Assay type: toxicity, cell-based
Conditions: read-out: GI
result.type: inhibition at 10 µM (%)

compound: NC(=O)c1cccc2cn(-c3ccc(C4CCCN(c5cccc6c5C(=O)N(C5CCC(=O)NC5=O)C6=O)C4)cc3)nc12 (stereo unspecified)
obs.value: 4.93
